Just for reference, ChEMBL document CHEMBL1129089 is where these values come from.

# experimental system: Dopamine receptors; D2 & D4 (Homo sapiens) (UniProt P14416+P21917)
# assay: Selectivity of D2 receptor over D4 receptor
# Assay type: protein assay
// values below are reported Selectivity
Lab note: record just the number, no unit beside it.

smiles_repr=CC(C)(C)C(=O)NCCCCCN1CCN(c2ccc(Cl)cc2)CC1 numeric_readout=3

Input line: Consider the molecule shown here: CC(C)(C)C(=O)NCCCCN1CCN(c2ccccc2)CC1 What is its recorded Selectivity?
Output line: 3

Input line: Try COc1ccccc1N1CCN(CCCCNC(=O)C(C)(C)C)CC1 next.
Output line: 2

Input line: Try O=C(NCCN1CCN(c2ccc(Cl)cc2)CC1)C12CC3CC(CC(C3)C1)C2 next.
Output line: 80

---

// values below are reported Selectivity
# experimental system: Dopamine receptors; D2 & D4 (Homo sapiens) (UniProt P14416+P21917)
# assay: Selectivity of D2 receptor over D4 receptor
# Assay type: protein assay

Some compounds with recorded Selectivity:
smiles_repr=CC(C)(C)C(=O)NCCCCN1CCN(c2ccc(C(F)(F)F)cc2)CC1 result=80
smiles_repr=CCCCC(C)(C)C(=O)NCCN1CCN(c2ccc(Cl)cc2)CC1 result=50
smiles_repr=CC(C)(C)C(=O)NCCCCN1CCN(c2ccccc2Cl)CC1 result=1

Continue with the compound presented below.
Input line: Consider the compound shown here: COc1ccc(N2CCN(CCCCNC(=O)C(C)(C)C)CC2)cc1 What is its recorded Selectivity?
Output line: > 30

---

# experimental system: Dopamine receptors; D2 & D4 (Homo sapiens) (UniProt P14416+P21917)
# assay: Selectivity of D2 receptor over D4 receptor
# Type: protein assay
property: Selectivity
Lab note: record just the number, no unit beside it.

Input line: Consider the molecule shown here: CC(C)(C)C(=O)NCCCCN1CCN(c2ccc(Cl)cc2)CC1 What is its recorded Selectivity?
Output line: 200

Input line: Try CCCC(C)(C)C(=O)NCCCCN1CCN(c2ccc(Cl)cc2)CC1 next.
Output line: 125

Input line: Try CC(C)C(=O)NCCCCN1CCN(c2ccc(Cl)cc2)CC1 next.
Output line: 16

Input line: Try COc1cc(Cl)ccc1N1CCN(CCCCNC(=O)C(C)(C)C)CC1 next.
Output line: 10

Input line: Try CC(C)(C)C(=O)NCCN1CCN(c2ccc(Cl)cc2)CC1 next.
Output line: 100
